Cut-off 300 mL/min/kg on intrinsic clearance, rat liver microsomes: below means true (1), at or above means false (0).

- COMPOUND_SMILES: "CC(C)c1nnc(CNc2ncc(Br)cn2)n1C"
  ASSIGNED_CLASS: "true (1)"
- COMPOUND_SMILES: "CC(C)(C)c1nccc(NCc2ccncc2)n1"
  ASSIGNED_CLASS: "false (0)"
- COMPOUND_SMILES: "O=C(NCCc1ccc(O)c(O)c1)Nc1ccccn1"
  ASSIGNED_CLASS: "true (1)"
- COMPOUND_SMILES: "CC(=O)Nc1cccc(CN2CCCN(C(C)=O)c3ccccc32)c1"
  ASSIGNED_CLASS: "false (0)"
- COMPOUND_SMILES: "Cn1cnc2ncn(Cc3nc(CCc4ccc(Cl)cc4)no3)c(=O)c21"
  ASSIGNED_CLASS: "true (1)"
- COMPOUND_SMILES: "CSc1ccc(CN(CCO)C(=O)CCc2cccc(F)c2)cc1"
  ASSIGNED_CLASS: "false (0)"
- COMPOUND_SMILES: "O=C(NCc1ccccn1)c1ccc(F)cc1Cl"
  ASSIGNED_CLASS: "true (1)"
- COMPOUND_SMILES: "CN(CC(=O)Nc1cccc(S(=O)(=O)N2CCCC2)c1)C1CCCCC1"
  ASSIGNED_CLASS: "false (0)"
- COMPOUND_SMILES: "O=C(c1ccc(-c2ccncc2)cc1)N1CCC(O)(CN2CCCC2)CC1"
  ASSIGNED_CLASS: "true (1)"
- COMPOUND_SMILES: "COc1ccc(Nc2c(C#N)cnc3cc(OC)c(OC)cc23)cc1Cl"
  ASSIGNED_CLASS: "false (0)"

Enquiry: intrinsic clearance, rat liver microsomes strictly < 300 mL/min/kg for this compound? CC1CCN(C(=O)c2n[nH]c3ccccc23)CC1
Return: false (0)

Enquiry: intrinsic clearance, rat liver microsomes strictly < 300 mL/min/kg for this compound? Cc1cc(C)c(NC(=O)CN(C)c2ccc(C#N)nc2)c(C)c1
Return: true (1)

Enquiry: intrinsic clearance, rat liver microsomes strictly < 300 mL/min/kg for this compound? Cc1cccc(C(=O)NCC#Cc2ccccc2)n1
Return: false (0)

Enquiry: intrinsic clearance, rat liver microsomes strictly < 300 mL/min/kg for this compound? Cc1cc(CN(C)C(=O)C(=O)Nc2ccc(F)c(C)c2)no1
Return: true (1)

Enquiry: intrinsic clearance, rat liver microsomes strictly < 300 mL/min/kg for this compound? Fc1cc(CCNc2ncnc3sccc23)c2c(c1)COCO2
Return: false (0)

Enquiry: intrinsic clearance, rat liver microsomes strictly < 300 mL/min/kg for this compound? CC(C)CN(c1ncnc2c1cnn2C)C1CC1
Return: false (0)

Enquiry: intrinsic clearance, rat liver microsomes strictly < 300 mL/min/kg for this compound? CN(Cc1ccccc1Br)C(=O)Nc1ccc(C(=O)N2CCCC2)cc1
Return: false (0)

Enquiry: intrinsic clearance, rat liver microsomes strictly < 300 mL/min/kg for this compound? CCN1CCCN(C(=O)Nc2ccc(COC3CCCC3)cc2)CC1
Return: true (1)

Enquiry: intrinsic clearance, rat liver microsomes strictly < 300 mL/min/kg for this compound? CSC1(CNc2cncc(Cl)n2)CCOCC1
Return: false (0)

Enquiry: intrinsic clearance, rat liver microsomes strictly < 300 mL/min/kg for this compound? Cc1ccnc2[nH]c(CSCc3ccccc3)nc12
Return: false (0)

Enquiry: intrinsic clearance, rat liver microsomes strictly < 300 mL/min/kg for this compound? CC(=O)Nc1ccc(C(=O)N2CCc3ncncc3C2)cc1
Return: true (1)

Enquiry: intrinsic clearance, rat liver microsomes strictly < 300 mL/min/kg for this compound? Cc1cc(CN2CCN(c3ncccn3)CC2)on1
Return: true (1)
